Where these numbers come from: ChEMBL document CHEMBL3217454

Test system: Human immunodeficiency virus 1
Experiment: Binding affinity to HLT-tagged HIV-1 Rev measured after overnight incubation by chemiluminescence analysis relative to IN 174-188
Design: concentration or dose not given beside the values
Square brackets hold non-standard residues; d marks the D form. Peptide text beside a SMILES is read from it. NMeV = CN[C@H](C(=O)O)C(C)C
Listed here are molecules together with their documented Activity.
Your answer should be a plain number; it is taken to be in %.

{"molecule": "CC[C@H](C)[C@H](NC(=O)[C@H](Cc1ccccc1)NC(=O)[C@@H](NC(=O)[C@H](C)NC(=O)[C@H](CCSC)NC(=O)[C@H](CCC(N)=O)NC(=O)[C@H](C)NC(=O)[C@H](C)NC(=O)[C@@H](N)[C@@H](C)O)C(C)C)C(=O)N[C@@H](Cc1cnc[nH]1)C(=O)N[C@@H](CC(N)=O)C(=O)N[C@@H](Cc1ccccc1)C(=O)N[C@@H](CCCCN)C(=O)N[C@@H](CCCNC(=N)N)C(=O)N[C@@H](CCCCN)C(=O)O (H-TAAQMAVFIHNFKRK-OH)", "readout-units": "%", "Activity": 106}
{"molecule": "CC[C@H](C)[C@H](NC(=O)[C@H](C)NC(=O)[C@@H](NC(=O)[C@H](C)NC(=O)[C@H](CCSC)NC(=O)[C@H](CCC(N)=O)NC(=O)[C@@H](NC(=O)[C@H](C)NC(=O)[C@@H](N)[C@@H](C)O)C(C)C)C(C)C)C(=O)N[C@@H](Cc1cnc[nH]1)C(=O)N[C@@H](CC(N)=O)C(=O)N[C@@H](Cc1ccccc1)C(=O)N[C@@H](CCCCN)C(=O)N[C@@H](CCCNC(=N)N)C(=O)N[C@@H](CCCCN)C(=O)O (H-TAVQMAVAIHNFKRK-OH)", "readout-units": "%", "Activity": 216}
{"molecule": "CC[C@H](C)[C@H](NC(=O)[C@H](Cc1ccccc1)NC(=O)[C@@H](NC(=O)[C@H](C)NC(=O)[C@H](CCSC)NC(=O)[C@H](CCC(N)=O)NC(=O)[C@@H](NC(=O)[C@H](C)NC(=O)[C@@H](N)[C@@H](C)O)C(C)C)C(C)C)C(=O)N[C@@H](Cc1cnc[nH]1)C(=O)N[C@@H](CC(N)=O)C(=O)N[C@@H](Cc1ccccc1)C(=O)N[C@@H](CCCCN)C(=O)N[C@@H](CCCNC(=N)N)C(=O)N[C@@H](C)C(=O)O (H-TAVQMAVFIHNFKRA-OH)", "readout-units": "%", "Activity": 209}
{"molecule": "CC[C@H](C)[C@H](NC(=O)[C@H](Cc1ccccc1)NC(=O)[C@@H](NC(=O)[C@H](C)NC(=O)[C@H](CCSC)NC(=O)[C@H](CCC(N)=O)NC(=O)[C@@H](NC(=O)[C@H](C)N)C(C)C)C(C)C)C(=O)N[C@@H](Cc1cnc[nH]1)C(=O)N[C@@H](CC(N)=O)C(=O)N[C@@H](Cc1ccccc1)C(=O)N[C@@H](CCCCN)C(=O)N[C@@H](CCCNC(=N)N)C(=O)N[C@@H](CCCCN)C(=O)O (H-AVQMAVFIHNFKRK-OH)", "readout-units": "%", "Activity": 141}
{"molecule": "CSCC[C@H](NC(=O)[C@H](CCC(N)=O)NC(=O)[C@@H](NC(=O)[C@H](C)NC(=O)[C@@H](N)[C@@H](C)O)C(C)C)C(=O)N[C@@H](C)C(=O)N[C@H](C(=O)N[C@@H](Cc1ccccc1)C(=O)O)C(C)C (H-TAVQMAVF-OH)", "readout-units": "%", "Activity": 0}

Q: Any idea what Activity came out for CC[C@H](C)[C@H](NC(=O)[C@H](Cc1ccccc1)NC(=O)[C@@H](NC(=O)[C@H](C)NC(=O)[C@H](CCSC)NC(=O)[C@H](CCC(N)=O)NC(=O)[C@@H](NC(=O)[C@H](C)NC(=O)[C@@H](N)[C@@H](C)O)C(C)C)C(C)C)C(=O)N[C@@H](Cc1cnc[nH]1)C(=O)N[C@@H](CC(N)=O)C(=O)N[C@@H](Cc1ccccc1)C(=O)N[C@@H](CCCCN)C(=O)O (H-TAVQMAVFIHNFK-OH) on Human immunodeficiency virus 1?
A: 127

Q: API: value(readout=Activity, system=Human immunodeficiency virus 1) for record CC[C@H](C)[C@H](NC(=O)[C@H](Cc1ccccc1)NC(=O)[C@@H](NC(=O)[C@H](C)NC(=O)[C@H](CCSC)NC(=O)[C@@H](CCC(N)=O)NC(=O)[C@@H](NC(=O)[C@H](C)NC(=O)[C@@H](N)[C@@H](C)O)C(C)C)C(C)C)C(=O)N[C@@H](Cc1cnc[nH]1)C(=O)N[C@@H](CC(N)=O)C(=O)N[C@@H](Cc1ccccc1)C(=O)N[C@@H](CCCCN)C(=O)N[C@@H](CCCNC(=N)N)C(=O)N[C@@H](CCCCN)C(=O)O
A: 173

Q: So what Activity did CC[C@H](C)[C@H](NC(=O)[C@H](Cc1ccccc1)NC(=O)[C@H](C(C)C)N(C)C(=O)[C@H](C)NC(=O)[C@H](CCSC)NC(=O)[C@H](CCC(N)=O)NC(=O)[C@@H](NC(=O)[C@H](C)NC(=O)[C@@H](N)[C@@H](C)O)C(C)C)C(=O)N[C@@H](Cc1cnc[nH]1)C(=O)N[C@@H](CC(N)=O)C(=O)N[C@@H](Cc1ccccc1)C(=O)N[C@@H](CCCCN)C(=O)N[C@@H](CCCNC(=N)N)C(=O)N[C@@H](CCCCN)C(=O)O (H-TAVQMA[NMeV]FIHNFKRK-OH) get with Human immunodeficiency virus 1?
A: 55

Q: What value of Activity on Human immunodeficiency virus 1 does CC[C@H](C)[C@H](NC(=O)[C@H](Cc1ccccc1)NC(=O)[C@@H](NC(=O)[C@H](C)NC(=O)[C@H](CCSC)NC(=O)[C@H](CCC(N)=O)NC(=O)[C@@H](NC(=O)[C@H](C)NC(=O)[C@@H](N)[C@@H](C)O)C(C)C)C(C)C)C(=O)N[C@@H](Cc1cnc[nH]1)C(=O)N[C@@H](CC(N)=O)C(=O)N[C@@H](Cc1ccccc1)C(=O)O (H-TAVQMAVFIHNF-OH) have?
A: 0

Q: Please tell me: Activity of CC[C@H](C)[C@H](NC(=O)[C@H](Cc1ccccc1)NC(=O)[C@@H](NC(=O)[C@H](C)N)C(C)C)C(=O)N[C@@H](Cc1cnc[nH]1)C(=O)N[C@@H](CC(N)=O)C(=O)N[C@@H](Cc1ccccc1)C(=O)N[C@@H](CCCCN)C(=O)N[C@@H](CCCNC(=N)N)C(=O)N[C@@H](CCCCN)C(=O)O (H-AVFIHNFKRK-OH) , system Human immunodeficiency virus 1?
A: 111

---

Target: UniProt:Q7ZJM1
Sequence (Q7ZJM1 as listed by the source): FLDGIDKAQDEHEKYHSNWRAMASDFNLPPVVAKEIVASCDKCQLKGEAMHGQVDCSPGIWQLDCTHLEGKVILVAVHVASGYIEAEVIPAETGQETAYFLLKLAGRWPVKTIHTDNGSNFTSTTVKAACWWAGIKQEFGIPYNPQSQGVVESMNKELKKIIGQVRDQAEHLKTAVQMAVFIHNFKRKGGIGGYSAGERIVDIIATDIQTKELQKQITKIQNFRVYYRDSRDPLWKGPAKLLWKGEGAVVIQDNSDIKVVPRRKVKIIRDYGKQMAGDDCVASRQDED
Assay: Binding affinity to HIV-1 integrase measured after overnight incubation by chemiluminescence analysis relative to IN 174-188
Design: concentration or dose not given beside the values
Square brackets hold non-standard residues; d marks the D form. Peptide text beside a SMILES is read from it. NMeT = CN[C@H](C(=O)O)[C@@H](C)O; NMeK = CN[C@@H](CCCCN)C(=O)O
parameter-measured: Activity (%)
# unit: % | format: bare number

{"compound": "CC[C@H](C)[C@H](NC(=O)[C@H](Cc1ccccc1)NC(=O)[C@@H](NC(=O)[C@H](C)NC(=O)[C@H](CCSC)NC(=O)[C@H](CCC(N)=O)NC(=O)[C@@H](NC(=O)[C@H](C)NC(=O)[C@@H](N)[C@@H](C)O)C(C)C)C(C)C)C(=O)N[C@@H](Cc1cnc[nH]1)C(=O)N[C@@H](CC(N)=O)C(=O)N[C@H](Cc1ccccc1)C(=O)N[C@@H](CCCCN)C(=O)N[C@@H](CCCNC(=N)N)C(=O)N[C@@H](CCCCN)C(=O)O", "Activity / %": 112}
{"compound": "CC[C@H](C)[C@H](NC(=O)[C@H](Cc1ccccc1)NC(=O)[C@@H](NC(=O)[C@H](C)NC(=O)[C@@H](N)CCSC)C(C)C)C(=O)N[C@@H](Cc1cnc[nH]1)C(=O)N[C@@H](CC(N)=O)C(=O)N[C@@H](Cc1ccccc1)C(=O)N[C@@H](CCCCN)C(=O)N[C@@H](CCCNC(=N)N)C(=O)N[C@@H](CCCCN)C(=O)O (H-MAVFIHNFKRK-OH)", "Activity / %": 106}
{"compound": "CC[C@H](C)[C@H](NC(=O)[C@H](Cc1ccccc1)NC(=O)[C@@H](NC(=O)[C@@H](C)NC(=O)[C@H](CCSC)NC(=O)[C@H](CCC(N)=O)NC(=O)[C@@H](NC(=O)[C@H](C)NC(=O)[C@@H](N)[C@@H](C)O)C(C)C)C(C)C)C(=O)N[C@@H](Cc1cnc[nH]1)C(=O)N[C@@H](CC(N)=O)C(=O)N[C@@H](Cc1ccccc1)C(=O)N[C@@H](CCCCN)C(=O)N[C@@H](CCCNC(=N)N)C(=O)N[C@@H](CCCCN)C(=O)O", "Activity / %": 142}
{"compound": "CC[C@H](C)[C@H](NC(=O)[C@H](Cc1ccccc1)NC(=O)[C@@H](NC(=O)[C@H](C)NC(=O)[C@H](CCSC)NC(=O)[C@H](CCC(N)=O)NC(=O)[C@@H](NC(=O)[C@H](C)NC(=O)[C@@H](NC)[C@@H](C)O)C(C)C)C(C)C)C(=O)N[C@@H](Cc1cnc[nH]1)C(=O)N[C@@H](CC(N)=O)C(=O)N[C@@H](Cc1ccccc1)C(=O)N[C@@H](CCCCN)C(=O)N[C@@H](CCCNC(=N)N)C(=O)N[C@@H](CCCCN)C(=O)O (H-[NMeT]AVQMAVFIHNFKRK-OH)", "Activity / %": 84}
{"compound": "CC[C@H](C)[C@H](NC(=O)[C@H](Cc1ccccc1)NC(=O)[C@@H](NC(=O)[C@H](C)NC(=O)[C@H](CCSC)NC(=O)[C@H](CCC(N)=O)NC(=O)[C@@H](NC(=O)[C@H](C)NC(=O)[C@@H](N)[C@@H](C)O)C(C)C)C(C)C)C(=O)N[C@@H](Cc1cnc[nH]1)C(=O)N[C@@H](CC(N)=O)C(=O)N[C@@H](Cc1ccccc1)C(=O)N[C@@H](CCCCN)C(=O)N[C@@H](CCCNC(=N)N)C(=O)N(C)[C@@H](CCCCN)C(=O)O (H-TAVQMAVFIHNFKR[NMeK]-OH)", "Activity / %": 117}
{"compound": "CC[C@H](C)[C@@H](NC(=O)[C@H](Cc1ccccc1)NC(=O)[C@@H](NC(=O)[C@H](C)NC(=O)[C@H](CCSC)NC(=O)[C@H](CCC(N)=O)NC(=O)[C@@H](NC(=O)[C@H](C)NC(=O)[C@@H](N)[C@@H](C)O)C(C)C)C(C)C)C(=O)N[C@@H](Cc1cnc[nH]1)C(=O)N[C@@H](CC(N)=O)C(=O)N[C@@H](Cc1ccccc1)C(=O)N[C@@H](CCCCN)C(=O)N[C@@H](CCCNC(=N)N)C(=O)N[C@@H](CCCCN)C(=O)O", "Activity / %": 99}
{"compound": "CSCC[C@H](NC(=O)[C@H](CCC(N)=O)NC(=O)[C@@H](NC(=O)[C@H](C)NC(=O)[C@@H](N)[C@@H](C)O)C(C)C)C(=O)N[C@@H](C)C(=O)N[C@H](C(=O)N[C@@H](Cc1ccccc1)C(=O)N[C@@H](C)C(=O)N[C@@H](Cc1cnc[nH]1)C(=O)N[C@@H](CC(N)=O)C(=O)N[C@@H](Cc1ccccc1)C(=O)N[C@@H](CCCCN)C(=O)N[C@@H](CCCNC(=N)N)C(=O)N[C@@H](CCCCN)C(=O)O)C(C)C (H-TAVQMAVFAHNFKRK-OH)", "Activity / %": 156}
{"compound": "CSCC[C@H](NC(=O)[C@H](CCC(N)=O)NC(=O)[C@@H](NC(=O)[C@H](C)NC(=O)[C@@H](N)[C@@H](C)O)C(C)C)C(=O)N[C@@H](C)C(=O)N[C@H](C(=O)N[C@@H](Cc1ccccc1)C(=O)O)C(C)C (H-TAVQMAVF-OH)", "Activity / %": 0}
{"compound": "CC[C@H](C)[C@H](NC(=O)[C@H](Cc1ccccc1)NC(=O)[C@@H](NC(=O)[C@H](C)NC(=O)[C@H](CCSC)NC(=O)[C@H](CCC(N)=O)NC(=O)[C@@H](NC(=O)[C@H](C)NC(=O)[C@@H](N)[C@@H](C)O)C(C)C)C(C)C)C(=O)N[C@@H](Cc1cnc[nH]1)C(=O)N[C@@H](CC(N)=O)C(=O)N[C@@H](Cc1ccccc1)C(=O)N[C@@H](CCCCN)C(=O)N[C@H](CCCNC(=N)N)C(=O)N[C@@H](CCCCN)C(=O)O", "Activity / %": 93}

Please look at the following compound next.
Q: Requested field: Activity. Item: CC[C@H](C)[C@H](NC(=O)[C@H](Cc1ccccc1)NC(=O)[C@@H](NC(=O)[C@H](C)NC(=O)[C@H](CCSC)NC(=O)[C@H](CCC(N)=O)NC(=O)[C@@H](NC(=O)[C@H](C)NC(=O)[C@@H](N)[C@@H](C)O)C(C)C)C(C)C)C(=O)N[C@@H](Cc1cnc[nH]1)C(=O)N[C@@H](CC(N)=O)C(=O)N[C@@H](Cc1ccccc1)C(=O)N(C)[C@@H](CCCCN)C(=O)N[C@@H](CCCNC(=N)N)C(=O)N[C@@H](CCCCN)C(=O)O (H-TAVQMAVFIHNF[NMeK]RK-OH)
A: 130
